- assay.details: Solubility in phosphate buffered saline
- Type: physicochemical
- measurement.context: 10 mM phosphate buffered saline (0.138 M NaCl, 2.7 mM KCl), pH 7.4
Exercise: for every item that follows, state its recorded Solubility (mg/mL) PBS.

Reference set (4 entries):
[[record]]
compound = "CC(C)CC(C(=O)NC1C(=O)NC(CC(N)=O)C(=O)NC2C(=O)NC3C(=O)NC(C(=O)NC(C(=O)O)c4cc(O)cc(O)c4-c4cc3ccc4O)C(OC3CC(C)(N)C(O)C(C)O3)c3ccc(c(Cl)c3)Oc3cc2cc(c3OC2OC(CO)C(O)C(O)C2OC2CC(C)(NCc3ccc(-c4ccc(Cl)cc4)cc3)C(O)C(C)O2)Oc2ccc(cc2Cl)C1O)N(C)C(=O)CNC(=O)C(N)CCCCN (stereo not drawn)"
value = "<0.5 mg/mL"

[[record]]
compound = "CNC(CC(C)C)C(=O)NC1C(=O)NC(CC(N)=O)C(=O)NC2C(=O)NC3C(=O)NC(C(=O)NC(C(=O)OCC(=O)NCCCNCCCN)c4cc(O)cc(O)c4-c4cc3ccc4O)C(OC3CC(C)(N)C(O)C(C)O3)c3ccc(c(Cl)c3)Oc3cc2cc(c3OC2OC(CO)C(O)C(O)C2OC2CC(C)(NCc3ccc(-c4ccc(Cl)cc4)cc3)C(O)C(C)O2)Oc2ccc(cc2Cl)C1O (stereo not drawn)"
value = ">100 mg/mL"

[[record]]
compound = "CC(C)CC(C(=O)NC1C(=O)NC(CC(N)=O)C(=O)NC2C(=O)NC3C(=O)NC(C(=O)NC(C(=O)O)c4cc(O)cc(O)c4-c4cc3ccc4O)C(OC3CC(C)(N)C(O)C(C)O3)c3ccc(c(Cl)c3)Oc3cc2cc(c3OC2OC(CO)C(O)C(O)C2OC2CC(C)(NCc3ccc(-c4ccc(Cl)cc4)cc3)C(O)C(C)O2)Oc2ccc(cc2Cl)C1O)N(C)C(=O)OCOC(=O)CNCCCNCCCCNCCCN (stereo not drawn)"
value = "<0.5 mg/mL"

[[record]]
compound = "CC(C)CC(C(=O)NC1C(=O)NC(CC(N)=O)C(=O)NC2C(=O)NC3C(=O)NC(C(=O)NC(C(=O)O)c4cc(O)cc(O)c4-c4cc3ccc4O)C(OC3CC(C)(N)C(O)C(C)O3)c3ccc(c(Cl)c3)Oc3cc2cc(c3OC2OC(CO)C(O)C(O)C2OC2CC(C)(NCc3ccc(-c4ccc(Cl)cc4)cc3)C(O)C(C)O2)Oc2ccc(cc2Cl)C1O)N(C)C(=O)OCOC(=O)C(CCCCN)NC(=O)C(N)CCCCN (stereo not drawn)"
value = ">5 mg/mL"


Next compound, please.
Asked: Solubility (mg/mL) PBS for CC(C)CC(C(=O)NC1C(=O)NC(CC(N)=O)C(=O)NC2C(=O)NC3C(=O)NC(C(=O)NC(C(=O)O)c4cc(O)cc(O)c4-c4cc3ccc4O)C(OC3CC(C)(N)C(O)C(C)O3)c3ccc(c(Cl)c3)Oc3cc2cc(c3OC2OC(CO)C(O)C(O)C2OC2CC(C)(NCc3ccc(-c4ccc(Cl)cc4)cc3)C(O)C(C)O2)Oc2ccc(cc2Cl)C1O)N(C)C(=O)OCOC(=O)C(N)CCCCN (stereo not drawn) ?
Given back: <0.5 mg/mL

* * *

- Test system: S. aureus ATCC 13709
- assay.details: In vitro antibacterial susceptibility (MIC, broth microdilution)
- Assay type: cell-based
- measurement.context: CAMHB + 0.002% tween
measurement.label: MIC against S. aureus ATCC 13709, CAMHB + 0.002% tween
# output: number + unit

[[record]]
compound = "CC(C)CC(C(=O)NC1C(=O)NC(CC(N)=O)C(=O)NC2C(=O)NC3C(=O)NC(C(=O)NC(C(=O)O)c4cc(O)cc(O)c4-c4cc3ccc4O)C(OC3CC(C)(N)C(O)C(C)O3)c3ccc(c(Cl)c3)Oc3cc2cc(c3OC2OC(CO)C(O)C(O)C2OC2CC(C)(NCc3ccc(-c4ccc(Cl)cc4)cc3)C(O)C(C)O2)Oc2ccc(cc2Cl)C1O)N(C)C(=O)OCc1ccc(OP(=O)(O)O)cc1 (centres unmarked)"
value = "1 µg/mL"


Below: the item to evaluate.
Asked: For the compound shown here, CNC(CC(C)C)C(=O)NC1C(=O)NC(CC(N)=O)C(=O)NC2C(=O)NC3C(=O)NC(C(=O)NC(C(=O)NCCCNCCCCNCCCN)c4cc(O)cc(O)c4-c4cc3ccc4O)C(OC3CC(C)(N)C(O)C(C)O3)c3ccc(c(Cl)c3)Oc3cc2cc(c3OC2OC(CO)C(O)C(O)C2OC2CC(C)(NCc3ccc(-c4ccc(Cl)cc4)cc3)C(O)C(C)O2)Oc2ccc(cc2Cl)C1O (centres unmarked) , give the reported MIC against S. aureus ATCC 13709, CAMHB + 0.002% tween.
Given back: 0.5 µg/mL

* * *

Assignment: determine reported MIC against S. aureus ATCC 13709, CAMHB + 50% human serum for the given compounds.
- Tested on: S. aureus ATCC 13709
- assay.details: In vitro antibacterial susceptibility (MIC, broth microdilution)
- Assay type: cell-based
- measurement.context: CAMHB + 50% human serum
Give bare numbers, in µg/mL.

A selection of reference data follows.
[[record]]
compound = "CC(C)CC(C(=O)NC1C(=O)NC(CC(N)=O)C(=O)NC2C(=O)NC3C(=O)NC(C(=O)NC(C(=O)O)c4cc(O)cc(O)c4-c4cc3ccc4O)C(OC3CC(C)(N)C(O)C(C)O3)c3ccc(c(Cl)c3)Oc3cc2cc(c3OC2OC(CO)C(O)C(O)C2OC2CC(C)(NCc3ccc(-c4ccc(Cl)cc4)cc3)C(O)C(C)O2)Oc2ccc(cc2Cl)C1O)N(C)C(=O)CNCCCNCCCCNCCCN (stereo not shown)"
test_system = "S. aureus ATCC 13709"
unit_descriptor = "µg/mL"
value = 0.125

[[record]]
compound = "CNC(CC(C)C)C(=O)NC1C(=O)NC(CC(N)=O)C(=O)NC2C(=O)NC3C(=O)NC(C(=O)NC(C(=O)NCCCNCCCCNCCCN)c4cc(O)cc(O)c4-c4cc3ccc4O)C(OC3CC(C)(N)C(O)C(C)O3)c3ccc(c(Cl)c3)Oc3cc2cc(c3OC2OC(CO)C(O)C(O)C2OC2CC(C)(NCc3ccc(-c4ccc(Cl)cc4)cc3)C(O)C(C)O2)Oc2ccc(cc2Cl)C1O (stereo not shown)"
test_system = "S. aureus ATCC 13709"
unit_descriptor = "µg/mL"
value = 1

[[record]]
compound = "CC(C)CC(C(=O)NC1C(=O)NC(CC(N)=O)C(=O)NC2C(=O)NC3C(=O)NC(C(=O)NC(C(=O)O)c4cc(O)cc(O)c4-c4cc3ccc4O)C(OC3CC(C)(NC(=O)OCOC(=O)C(N)CCCCN)C(O)C(C)O3)c3ccc(c(Cl)c3)Oc3cc2cc(c3OC2OC(CO)C(O)C(O)C2OC2CC(C)(NCc3ccc(-c4ccc(Cl)cc4)cc3)C(O)C(C)O2)Oc2ccc(cc2Cl)C1O)N(C)C(=O)OCOC(=O)C(N)CCCCN (stereo not shown)"
test_system = "S. aureus ATCC 13709"
unit_descriptor = "µg/mL"
value = 0.5

[[record]]
compound = "CC(C)CC(C(=O)NC1C(=O)NC(CC(N)=O)C(=O)NC2C(=O)NC3C(=O)NC(C(=O)NC(C(=O)O)c4cc(O)cc(O)c4-c4cc3ccc4O)C(OC3CC(C)(N)C(O)C(C)O3)c3ccc(c(Cl)c3)Oc3cc2cc(c3OC2OC(CO)C(O)C(O)C2OC2CC(C)(NCc3ccc(-c4ccc(Cl)cc4)cc3)C(O)C(C)O2)Oc2ccc(cc2Cl)C1O)N(C)C(=O)OCOC(=O)CCC(=O)O (stereo not shown)"
test_system = "S. aureus ATCC 13709"
unit_descriptor = "µg/mL"
value = 0.5


# per-item lookup of MIC against S. aureus ATCC 13709, CAMHB + 50% human serum; items listed below
1. CNC(CC(C)C)C(=O)NC1C(=O)NC(CC(N)=O)C(=O)NC2C(=O)NC3C(=O)NC(C(=O)NC(C(=O)OCC(=O)NCCCCN)c4cc(O)cc(O)c4-c4cc3ccc4O)C(OC3CC(C)(N)C(O)C(C)O3)c3ccc(c(Cl)c3)Oc3cc2cc(c3OC2OC(CO)C(O)C(O)C2OC2CC(C)(NCc3ccc(-c4ccc(Cl)cc4)cc3)C(O)C(C)O2)Oc2ccc(cc2Cl)C1O (stereo not shown) [Compound 90c]
2. CNC(CC(C)C)C(=O)NC1C(=O)NC(CC(N)=O)C(=O)NC2C(=O)NC3C(=O)NC(C(=O)NC(C(=O)OCC(=O)NCCCNCCCCNCCCN)c4cc(O)cc(O)c4-c4cc3ccc4O)C(OC3CC(C)(N)C(O)C(C)O3)c3ccc(c(Cl)c3)Oc3cc2cc(c3OC2OC(CO)C(O)C(O)C2OC2CC(C)(NCc3ccc(-c4ccc(Cl)cc4)cc3)C(O)C(C)O2)Oc2ccc(cc2Cl)C1O (stereo not shown)
3. CC(C)CC(C(=O)NC1C(=O)NC(CC(N)=O)C(=O)NC2C(=O)NC3C(=O)NC(C(=O)NC(C(=O)O)c4cc(O)cc(O)c4-c4cc3ccc4O)C(OC3CC(C)(N)C(O)C(C)O3)c3ccc(c(Cl)c3)Oc3cc2cc(c3OC2OC(CO)C(O)C(O)C2OC2CC(C)(NCc3ccc(-c4ccc(Cl)cc4)cc3)C(O)C(C)O2)Oc2ccc(cc2Cl)C1O)N(C)C(=O)CNC(=O)C(N)CCCCN (stereo not shown)

Given back:
1. 0.125
2. 0.25
3. 0.25
